Test: protein stability index of a GFP-peptide fusion (GPS, HEK-293T) (PSI 1-6); higher = more stable;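 also: 24-mer peptide tiles fused after GFP, lentivirally expressed, FACS-sorted into six equal bins by GFP/DsRed ratio, decoded by Illumina sequencing, PSI is the read-weighted mean bin number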
Settings: treatment: DMSO; c terminus: a fixed tail appended
Label rule met when protein stability index >= 3; otherwise rule not met.

Please indicate if the recorded protein stability index for KGPGAPQYPAGTQGEQLEVPERLL [SPSB2] meets or exceeds 3.
rule met

Please indicate if the recorded protein stability index for ISNVCEEYIVKKLSRQEFLGMVGL [SLC35F2] meets or exceeds 3.
rule not met

Please indicate if the recorded protein stability index for NCRLSEGDVMHLSQSPSVSQLSVL [PRAME] meets or exceeds 3.
rule not met

Please indicate if the recorded protein stability index for ASEAFHWDERGRAAAYSPSEALLY [ANKRD9] meets or exceeds 3.
rule met

Please indicate if the recorded protein stability index for LREIPETTPIEEVKGLFKSENCPK [LARP4] meets or exceeds 3.
rule met

Please indicate if the recorded protein stability index for QTESGSEEVSSTVHIETFTTRHGE [C10orf62] meets or exceeds 3.
rule met

Please indicate if the recorded protein stability index for HFQEAIDFIDCVREKGGKVLVHCE [DUSP5] meets or exceeds 3.
rule not met

Please indicate if the recorded protein stability index for QTLQALNFCHIHNCIHRDIKPENI [CDKL4] meets or exceeds 3.
rule not met

Please indicate if the recorded protein stability index for FQQNHLFWLQNSSPSSDRVSAIIW [PHTF1] meets or exceeds 3.
rule not met

Please indicate if the recorded protein stability index for LMIIVCIDQWKNKIWPEIKVPRPD [RETREG3] meets or exceeds 3.
rule not met

Please indicate if the recorded protein stability index for SQKGCLALSLLELLGFNLTFVFLA [CLCN6] meets or exceeds 3.
rule met

Please indicate if the recorded protein stability index for LVAKELGQTGTRLTPADKAEHMKR [AUP1] meets or exceeds 3.
rule met

Please indicate if the recorded protein stability index for QPPPQSSEGLVGALMHVMQKRSRA [WAS] meets or exceeds 3.
rule met
